Measured values drawn from the supplement of paper PMC10065799 for this set.

Measured SH2 binding enrichment of individual entries
# experimental.system: c-Src SH2;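 also: peptide library displayed on the E. coli surface as eCPX fusions, selected cells deep-sequenced, score is each peptide's frequency after selection divided by its frequency in the input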
# procedure.details: SH2 binding enrichment of the phosphorylated peptide, bacterial display (enrichment ratio); higher = better substrate or ligand; peptides without Tyr show the background
readout.label: SH2 binding enrichment

[[record]]
seq_string = "FRARAYGFRGP [CHGA_Y381]"
experimental_system = "c-Src SH2"
value = 0.465

[[record]]
seq_string = "HLLRIYYDITD [MMP27_Y307_W304L]"
experimental_system = "c-Src SH2"
value = 1.55

[[record]]
seq_string = "EDGFAYVPLKD [PRIM2_Y208]"
experimental_system = "c-Src SH2"
value = 0.55

[[record]]
seq_string = "DYNPNYCFAGK [ALK_Y1096]"
experimental_system = "c-Src SH2"
value = 0.532

[[record]]
seq_string = "TSPKSYPSQKH [CAP2_Y316]"
experimental_system = "c-Src SH2"
value = 0.538

[[record]]
seq_string = "LASSEYPVQRR [GALK1_Y236_R239Q]"
experimental_system = "c-Src SH2"
value = 0.256

[[record]]
seq_string = "RREGVYRNNID [PTEN_Y46_L42R]"
experimental_system = "c-Src SH2"
value = 0.436

[[record]]
seq_string = "EHAGEYGAEAL [HBA1_Y25_A20E]"
experimental_system = "c-Src SH2"
value = 0.674

[[record]]
seq_string = "AQQPIYVRVEG [NLRP7_Y318]"
experimental_system = "c-Src SH2"
value = 0.609

[[record]]
seq_string = "VEDQFYCVDCF [FHL1_Y208_YF]"
experimental_system = "c-Src SH2"
value = 1.32

[[record]]
seq_string = "ALTDNYMFLVI [HAGH_Y61_YF]"
experimental_system = "c-Src SH2"
value = 0.366

[[record]]
seq_string = "GHMYAYDWISI [BEST1_Y227_L224M]"
experimental_system = "c-Src SH2"
value = 2.41

[[record]]
seq_string = "VNYGAYINDFN [GLB1_Y488_K493N]"
experimental_system = "c-Src SH2"
value = 6.95

[[record]]
seq_string = "AIMSFYAALIN [RYR1_Y2426_D2431N]"
experimental_system = "c-Src SH2"
value = 0.785

